- Tested on: PPARg:RXRa 90nM:30nM, anti-RXR (NR concentration 90 nM, RXRa partner concentration 30 nM)
- procedure.details: PBM binding z-score (relative to random genomic background probes); higher = stronger binding; sequences stand for … in GC…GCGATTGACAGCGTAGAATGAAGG
Each entry gets Not fulfilled if its PBM binding z-score stays under 0.5, and Fulfilled if its PBM binding z-score is 0.5 or above.

INSERT INTO results (item_sequence, group) VALUES
  ('CGTCAAAGTTCAACTAAGGAAACGTAAAGCACGC', 'Fulfilled'),
  ('ACAGACAGGTGAGTTAAGGTAACTCAGCTGGACG', 'Not fulfilled'),
  ('TCTTGTAGATCAACAGAGGTTAAGAAAGTGCGCT', 'Fulfilled'),
  ('GCTTGTAGGTCAAGGTTAAGAAAGACTAAGCTAA', 'Fulfilled'),
  ('ATCTCTAGATAACCAAGTTCAGTGAATGCCGAAC', 'Not fulfilled'),
  ('CCTTACGGGTTACTGACAGGTTATAGCATTTGGA', 'Fulfilled'),
  ('CAGCCTAGGTCAGGGCCCGTATAGGAGGAACGTT', 'Not fulfilled'),
  ('CCTACGGGGCCAAAAAGGTCATTGATGCCGATAA', 'Fulfilled'),
  ('AGGATGAGGTTAAGATCAGGGAAACAGAATACAT', 'Fulfilled'),
  ('ACAGACAGGTGAGTGAAGTTAACTCAGCTGGACG', 'Not fulfilled'),
  ('CCGACTGGGGGATAAGGTTACCATAAGCCAGCCC', 'Fulfilled'),
  ('AGAATGAGGTTAAGAACAGGGAAACAGAATACAT', 'Fulfilled');

====

- Tested on: RARa:RXR (NR concentration 270 nM, RXRa partner concentration 90 nM)
- procedure.details: PBM binding z-score (relative to random genomic background probes); higher = stronger binding; sequences stand for … in GC…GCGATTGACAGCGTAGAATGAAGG
Each entry gets NO if its PBM binding z-score stays under 3, and YES if its PBM binding z-score is 3 or above.

INSERT INTO assay_data (item_sequence, group) VALUES
  ('ACTAGCAGGCCAAGATTGGGTCACTCAAACAAAG', 'NO'),
  ('TCTAGTTGGTCACGGACGTCACACACGACGGGTA', 'NO'),
  ('CCTACTGGGCCAAAAAGGTCATTGCTGCCGATAA', 'YES'),
  ('ACTAGCAGGCGAAGGGTCACTCAAGATTAGTCCG', 'YES'),
  ('TCGAGTAGGATAGGGGCATTCAGAATGGCGTCGA', 'NO'),
  ('CGTCCAAGGTCAAAGGTGAGTGAAGAGATGACGG', 'YES');

====

- Test system: RARa homodimer (NR concentration 270 nM)
- procedure.details: PBM binding z-score (relative to random genomic background probes); higher = stronger binding; sequences stand for … in GC…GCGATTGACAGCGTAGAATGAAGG
Each entry gets NOT MET if its PBM binding z-score stays under 1, and MET if its PBM binding z-score is 1 or above.

INSERT INTO results (item_sequence, group) VALUES
  ('TCTTGTAGATCAAGCAGGTTAGGAAAGCCTGAGT', 'NOT MET'),
  ('CCTAGCAGGCTAGGGTCACTCAAGCATTTCGCTT', 'NOT MET'),
  ('CAAACTAGGTCATCCAGGACAGTGAATACATTGA', 'MET'),
  ('ATCGAAAGGTCGAAGGTGAGTGTACCCACCCGAA', 'NOT MET'),
  ('ATATGTAGGTTAAGGGTCATTCAGGTTGGTTCGC', 'MET'),
  ('CCTTACGGGTCACTCCAGGTGATAGCATCGGAGT', 'NOT MET'),
  ('TCATAAAGGTAAACAGGTGAAAGTCCGTAAGTTA', 'MET'),
  ('CAAACTAGGACAAAGGTCAAAGTCGAGCCAACCA', 'MET'),
  ('CAAACAAGGTCAAGGTCAAAGTCGGTTTGTGCCA', 'MET'),
  ('ATCTCTAGGTAAAGTTCAATGAAAGATCGATAGA', 'MET'),
  ('TCGAGTAGGTTAGGGGTATTCAGAATGGCGTCGA', 'NOT MET'),
  ('GGAACGAGGGGAAGTTGATAGCAGAGTTTGATGG', 'NOT MET'),
  ('AGAAGGAGGTTATACGTAGATCAGGGAAGAAAGT', 'MET'),
  ('CCTCGGAGGACAACAGGAGGTCAGCGCTGCCAGA', 'NOT MET'),
  ('ACTCGGAGGACAAAGGTCAGAGATACGCCAGTGA', 'MET'),
  ('CGAACTAGGGCATCCAGGACAGTGAATACATTGA', 'NOT MET'),
  ('TAGCGTAGGTCAGATCGGGCCAGTATACGCTATA', 'NOT MET'),
  ('CCTAGTTGGTCAGGATGTCACACACCGGATATGA', 'MET'),
  ('TGAATGAGGTTAAAGATCAGTGAACGTGGCGTCG', 'NOT MET'),
  ('TCAGACAGGTGAAGGTAACTCATGTACGCAGTCG', 'NOT MET'),
  ('ACTAGCAGGCCAAGTTTGGGTAACTCAAACAAAG', 'NOT MET'),
  ('GCTAGTTGGTCAGTAAAAGGTCACTCACCGGTCG', 'MET'),
  ('CCGACTGGGCCAAAGGTCATTGATTCCAATGCTC', 'NOT MET'),
  ('GTACCAAGGTGAATAGGTCGTTAATGAGTAGGCG', 'NOT MET'),
  ('CCGAGTAGGTTATGGGGCATTGAGGCAACGGTGA', 'NOT MET');

====

- System: RARa homodimer (NR concentration 270 nM)
- procedure.details: PBM binding z-score (relative to random genomic background probes); higher = stronger binding; sequences stand for … in GC…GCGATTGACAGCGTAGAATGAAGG
Each entry gets f if its PBM binding z-score stays under 0.2, and t if its PBM binding z-score is 0.2 or above.

INSERT INTO results (item_sequence, group) VALUES
  ('GCGACTGGGGCAACGCAGGTTACCATAAGGTTGG', 'f'),
  ('ACAGACAGGTGAGTGAAGGTAATTCAGCTGGACG', 'f'),
  ('TCTGGGAGGACACGAAAGGTCAGAGCTCGACATC', 't'),
  ('AGTCAATGTTCATCTAGGTAACGTAAGATATGCT', 'f'),
  ('TTTACAGGGTCAAAGGCCAGAGTACGAATGTCGA', 't'),
  ('CATACAGGGTCAGCTAGGCCAGAGTTGGGACGGC', 't'),
  ('AGAACGAGGGCACGCTGAGTTGATAGCCGAGTAG', 'f'),
  ('AATACAGGGTTACTAGGCCAGAGTAGGTACGAAT', 't'),
  ('GCGACTGGGGCAAAGCAGATTACCATAAGGTTGG', 'f'),
  ('CCTAATGGGCCACGAAAGGTCATTGATTCAGTGA', 't'),
  ('GCATGTAGGTAATACAAGGTGAAAGTCCGATTGT', 'f'),
  ('GCTGCTAGGTCAGGTTGGTCAGCGAACGGGTACG', 'f');

====

- Tested on: RARa homodimer (NR concentration 270 nM)
- procedure.details: PBM binding z-score (relative to random genomic background probes); higher = stronger binding; sequences stand for … in GC…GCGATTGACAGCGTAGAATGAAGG
Each entry gets criterion not met if its PBM binding z-score stays under 0.8, and criterion met if its PBM binding z-score is 0.8 or above.

INSERT INTO assay_data (item_sequence, study_system, group) VALUES
  ('ATCGAAAGGTCGATGTGAGTATAGAGAAAGGGAA', 'RARa homodimer (NR concentration 270 nM)', 'criterion not met'),
  ('CCTACTGGGCCAAAGGTCATTGTTTCCAATGCTC', 'RARa homodimer (NR concentration 270 nM)', 'criterion met'),
  ('TCTCGGAGGACACGAAAGGTCAGAGCTCGACATC', 'RARa homodimer (NR concentration 270 nM)', 'criterion met'),
  ('TCTTGTAGATCAATAGAGGTTAAGAAGGTGCGCT', 'RARa homodimer (NR concentration 270 nM)', 'criterion not met'),
  ('ATAGGTAGGTTATCGGGTCATTCAGTTTGCGCAT', 'RARa homodimer (NR concentration 270 nM)', 'criterion met'),
  ('TCTAGTTGGGCAAAGGTCACACACTCGAAATGCG', 'RARa homodimer (NR concentration 270 nM)', 'criterion met'),
  ('AATACAGGGCCACTAGGCCAGAGTAGGTACGAAT', 'RARa homodimer (NR concentration 270 nM)', 'criterion not met'),
  ('CCTGCGAGGTCAATGGTCAGCTAAAGCAGCTCGC', 'RARa homodimer (NR concentration 270 nM)', 'criterion not met'),
  ('ATCGAAAGGTCGAGGAGAGTATAGAGAAAGGGAA', 'RARa homodimer (NR concentration 270 nM)', 'criterion not met'),
  ('AGAACGAGGGCAATGAGTTGAGAGCACGGGTGGC', 'RARa homodimer (NR concentration 270 nM)', 'criterion not met'),
  ('GATACAGGGTCAGCTAGAAGCCAGAGTATGGAAA', 'RARa homodimer (NR concentration 270 nM)', 'criterion not met'),
  ('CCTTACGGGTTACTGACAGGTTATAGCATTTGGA', 'RARa homodimer (NR concentration 270 nM)', 'criterion not met'),
  ('ATCGAAAGGTCGTGAGGAGAGTATACAGAAAGGC', 'RARa homodimer (NR concentration 270 nM)', 'criterion met'),
  ('CTACCAAGGTGAACAAGGTCCTTGATTACTATTC', 'RARa homodimer (NR concentration 270 nM)', 'criterion not met'),
  ('ACTAGCAAGCCAAGGGTCACTCAAGATTAGTCCG', 'RARa homodimer (NR concentration 270 nM)', 'criterion not met'),
  ('TCTTGTAGATGAATAGAGGTTAAGAAAGTGCGCT', 'RARa homodimer (NR concentration 270 nM)', 'criterion met'),
  ('ACTATTAGTTGACTTAGTGCAACCGATACGACGC', 'RARa homodimer (NR concentration 270 nM)', 'criterion not met'),
  ('ACTTACGGGTCAACGAGCTTATAGCACGCGTATA', 'RARa homodimer (NR concentration 270 nM)', 'criterion met'),
  ('ACAGACAGGTGAGTGAAGGTAACTCACCTGGACG', 'RARa homodimer (NR concentration 270 nM)', 'criterion not met'),
  ('ATCTCTAGGTCAGACTCAGTTCAGTGAAGAACGC', 'RARa homodimer (NR concentration 270 nM)', 'criterion met'),
  ('ACTGGCAGGCCAAGTTTGGGTCACTCAAACAAAG', 'RARa homodimer (NR concentration 270 nM)', 'criterion not met'),
  ('TCATATAGGTAAACAGTTGAAAGTCCGTAAGTTA', 'RARa homodimer (NR concentration 270 nM)', 'criterion met'),
  ('AGTCAAAGTTCACTAGGTCACGTAAGATTCAGCT', 'RARa homodimer (NR concentration 270 nM)', 'criterion met'),
  ('CCCACTGGGGCATAAGGTTACCATAAGCCAGCCC', 'RARa homodimer (NR concentration 270 nM)', 'criterion not met'),
  ('GCTAGCAGGCCATTTGGGTCTCTCAATGACGGGC', 'RARa homodimer (NR concentration 270 nM)', 'criterion not met');
